Hey, just so you know, these numbers are from PubChem BioAssay.

assay: blockers of RIG-like receptor reporter activation – cell-based, Sendai virus stimulus, luciferase, 10K MLSCN set, TLR/RLR signaling modifier project, primary screen (AID 602276); conditions: HEK293 RL24 IRF3 luciferase reporter, at 10 µM, stronger effect = higher value;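 also: firefly luciferase from ISG56 promoter only with Renilla not read in this screen; 0% = Sendai virus plus DMSO and 100% = medium plus DMSO without virus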
Provide the recorded inhibition for the entries that follow.
One number for each entry, in %.

Sample answers from the record:
CCC(C)NC(=O)c1cc(-c2ccc(OC)cc2)on1 (stereo not given) | -45.5
Cc1ccc(NC(=O)CC2Nc3ccccc3NC2=O)cc1Cl (stereo not given) | -4.9
CCOC(=O)C1CCN(C(=O)C2CCN(S(=O)(=O)c3cc(Cl)ccc3Cl)CC2)CC1 | 16
O=C(CS(=O)(=O)c1cn(Cc2ccc(F)cc2)c2ccccc12)N1CCCCC1 | 3.28

# next molecule below
input: Item COc1ccc(C(NC(=O)c2ccco2)c2ccc(OC)c(OC)c2)cc1 (stereo not given) : provide inhibition
output: 6.11

---

assay: endothelial E-selectin expression blockers – imaging, HUVEC, immunofluorescence, MLSMR starter and 10KST1 sets, primary screen (AID 487); settings: HUVEC TNFalpha-induced E-selectin immunofluorescence imaging, at 2 µM; measured here: cell number, toxicity;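 also: 100% = median nuclei count of all wells on the same plate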
OBSERVED PROPERTY: nuclei count
Reply with the number, then its unit.

Example cases with answers are listed next.
C(#Cc1ccccc1)Cn1nnc2ccccc21 | 103%
c1ccc(-c2cc(CSc3nc4ccccc4[nH]3)on2)cc1 | 116%
O=c1cc(CN2CCN(c3ccc(F)cc3)CC2)nc2sccn12 | 109%
CCCN(S(=O)(=O)c1ccc(OCC)cc1)S(=O)(=O)c1cccs1 | 101%

// next entry
input: Identify measured nuclei count associated with CCN1CCN(CCNC(=O)c2cn(C(C)c3ccccc3F)nn2)CC1 (stereo not given)
output: 110%

---

biological target: Voltage-gated potassium channel subunit beta-2 (Rattus norvegicus) (UniProt P62483); test: inhibitors of rat Kvbeta2 reductase activity – biochemical, NADPH fluorescence, primary screen (AID 622); details: recombinant KvBeta, 4-cyanobenzaldehyde reduction, at 10 µM, stronger effect = higher value;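 also: slope of raw intensity against log time taken from 70 to 1610 s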
Sequence (P62483 whole entry, looked up): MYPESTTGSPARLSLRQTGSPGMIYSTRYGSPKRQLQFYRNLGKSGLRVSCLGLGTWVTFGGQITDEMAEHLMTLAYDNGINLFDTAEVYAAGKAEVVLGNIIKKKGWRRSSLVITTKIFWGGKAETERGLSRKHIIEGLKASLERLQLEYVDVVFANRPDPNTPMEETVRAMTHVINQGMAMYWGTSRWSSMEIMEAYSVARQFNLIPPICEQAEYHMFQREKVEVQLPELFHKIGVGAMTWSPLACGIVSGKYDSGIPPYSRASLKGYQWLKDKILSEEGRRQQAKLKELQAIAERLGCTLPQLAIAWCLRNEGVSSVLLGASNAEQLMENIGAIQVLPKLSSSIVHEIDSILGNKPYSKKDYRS
OBSERVED PROPERTY: fluorescence slope
Give bare numbers.

Here's what some known entries look like.
Cc1cccc(C)c1-n1nnnc1SCSc1nnnn1-c1c(C)cccc1C | -0.445
Cc1nn(-c2ccccc2)c2[nH]c(C(F)(F)F)cc(=O)c12 | -0.411
COCCNC(=S)c1ccc(OC)cc1 | -0.362
CC(=O)Nc1ccc(S(=O)(=O)N(CC(=O)O)Cc2ccccc2)cc1 | -0.575
CCOC(=O)c1nnc2ccnn2c1N | -0.448

Hey, quick one: what's fluorescence slope for each of these?
1. CC(=O)Nc1ccc(NC(=O)c2ccccc2N(C)S(C)(=O)=O)cc1
2. CC(=O)N1CCC2(CC1)CC(=O)c1cc(OCC(=O)NCc3ccc(C)cc3)ccc1O2
3. CCCC(=O)Nc1ccccc1NC(=O)CCC
4. c1cnc(NCCNc2ncccn2)nc1
5. COc1cc2c(C#N)c(N3CCN(c4ccccc4OC)CC3)nc(N)c2c(N)n1
6. COc1ccc(NS(=O)(=O)c2c(C)[nH]c(=O)[nH]c2=O)c(OC)c1
7. O=C(O)C1CC=CCC1C(=O)Nc1cccc(F)c1 (stereo not drawn)
8. CCC(C)OC(=O)c1[nH]c2c(c1C)C(=O)CC(c1ccc(N(C)C)cc1)C2 (stereo not drawn)

output:
-0.462
-0.0682
-0.434
-0.346
-0.178
-0.565
-0.432
-0.506

---

Would you kindly list inhibition for each of these molecules?
assay: blockers of RIG-like receptor reporter activation – cell-based, Sendai virus stimulus, luciferase, 10K MLSCN set, TLR/RLR signaling modifier project, primary screen (AID 602276); conditions: HEK293 RL24 IRF3 luciferase reporter, at 10 µM, stronger effect = higher value;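 also: firefly luciferase from ISG56 promoter only with Renilla not read in this screen; 0% = Sendai virus plus DMSO and 100% = medium plus DMSO without virus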
Answers are plain numbers, in %.

COc1ccc(S(=O)(=O)Nc2ccc(S(=O)(=O)N3CCCCC3)cc2)cc1OC | 5.56

List reported inhibition for each of these molecules:
1. CCNS(=O)(=O)c1c(C)cc(N2CCCC2=O)cc1C
2. COc1ccc(N=C2C(=O)Nc3ccccc32)cc1
3. CCOC(=O)c1cccc(NC(=O)CCn2nnc3ccccc32)c1
4. O=C(CS(=O)(=O)c1cn(Cc2ccc(Cl)cc2)c2ccccc12)N1CCOCC1
5. COc1ccc(C(NC(C)=O)c2ccc3cccnc3c2O)c(OC)c1 (stereo not given)
6. COC(=O)c1c(N)n(-c2cc(OC)cc(OC)c2)c2nc3ccccc3nc12

output:
1: -1.95; 2: 13; 3: 18.4; 4: 5.23; 5: -12.8; 6: 2.96

Provide inhibition values for the following items, in order.
1. CCOC(=O)c1c(C)oc2ccc(O)c(CN3CCCCC3)c12
2. COc1ccc(OC)c(S(=O)(=O)NCCO)c1
3. CCOC(=O)c1cccc(NC(=O)CSc2nc3ccccc3c(=O)n2CC)c1
4. O=C(NC1CCS(=O)(=O)C1)OC1CCCCC1 (stereo not given)
5. COc1ccc(CNC(=O)c2ccc(CN3CCOCC3)cc2)cc1

output:
1. 17.3
2. 16
3. 9.39
4. 10.9
5. 7.5

---

Could you please report measured nuclei count for the items listed next?
experiment: reduction of polyQ htt aggregates in cells – imaging, exon1htt(103Q)mCFP cells, high-content imaging, primary screen (AID 483); details: exon1htt(103Q)mCFP cell line, aggregate imaging, at 2 µM; measured here: cell count, toxicity;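 also: compound exposure lasted 3 days before fixation; percent of the per-plate median nuclei count of sample wells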
Answer shape: numeric part, then the unit.

COc1ccccc1C(=O)N1CCNC(=O)C1CC(=O)Nc1ccc(Cl)cc1 (stereo not drawn) | 105%
COc1cc(C(=O)NCC(=O)OCC(=O)c2ccc[nH]2)cc(OC)c1OC | 101%
COc1ccc(/C=N/n2cnnc2SCc2ccc(OC)cc2)cc1 | 96.9%
Cc1ccc(C(=O)OCC(=O)Nc2ccc3c(c2)OCO3)o1 | 99.5%
Nc1c(C(=O)NCCc2ccccc2)nnn1Cc1ccccc1 | 69.8%

# batch: return nuclei count for each of the 2 compounds below
1. Cc1nc(NC2=NCN(CCN3CCOCC3)CN2)nc2c(C)cccc12
2. Cc1cccc(-n2c(Cc3cc(=O)[nH]c(=O)[nH]3)nnc2SCC(=O)NCc2ccco2)c1

output:
72.4%
90%

input: Let me know recorded nuclei count for COc1cc(-c2nc(S(=O)(=O)c3ccc(C)cc3)c(N(C)C)o2)cc(OC)c1OC , thanks.
output: 105%

---

experiment: TLR3 IRF3 reporter activation blockers – cell-based, poly I:C stimulus, luciferase, 10K MLSCN set, primary screen (AID 602277); conditions: HEK293-TLR3 RL24 IRF3 luciferase reporter, at 10 µM, stronger effect = higher value
OBSERVED PROPERTY: inhibition (%)
Give bare numbers, in %.

Example cases with answers are listed next.
O=c1[nH]c2cc3c(cc2cc1C(c1nnnn1C1CCCCC1)N1CCSCC1)OCCO3 (stereo not drawn) | -7.01
Cc1cc2cc(CNC(=O)c3ccc4c(c3)OCO4)ccc2[nH]1 | -25.2
COc1ccc(OCCCC(=O)Nc2ccc3c(c2)OCCO3)cc1 | -17.3
Cc1ccc(C)n1NC(=O)c1ccco1 | 14.3
O=C(NCc1ccccc1)C1CCN(S(=O)(=O)c2cccc3cccnc23)CC1 | 33.1

Provide the reported inhibition of each entry below, same order.
1. CN(C)S(=O)(=O)c1ccc2c(c1)C(CC(=O)O)OC2=O (stereo not drawn)
2. CC(Oc1ccccc1)C(=O)NC1CCN(Cc2ccccc2)CC1 (stereo not drawn)
3. O=C(Cn1nnc(-c2ccc(S(=O)(=O)N3CCCC3)cc2)n1)NCC1CCCO1 (stereo not drawn)
4. CC(=O)NC1(C(F)(F)F)NC(=O)N(CC(C)C)C1=O (stereo not drawn)
5. CC(c1ccco1)N(C(=O)COc1ccc(Cl)cc1Cl)c1ccccn1 (stereo not drawn)
6. CC(Sc1nnnn1-c1ccccc1)C(=O)Nc1ccc(Cl)cn1 (stereo not drawn)
7. Cc1nnc(Nc2ccccn2)c2ccccc12
8. CCn1c(SCC(=O)N2CCN(c3ccc(Cl)cc3)CC2)nc2ccccc2c1=O

output:
1: 26.3; 2: 21.3; 3: 15.1; 4: 14; 5: -73.7; 6: 19.9; 7: 13.2; 8: -12.7

Dear reader, for each entry below, please note its inhibition.
1. CC(C)(C)C(=O)Cn1c(=N)n(Cc2ccccc2)c2ccccc21
2. CCCCN(c1ccccc1)S(=O)(=O)c1ccc2c(c1)CCN2C(=O)CCC(=O)O
3. Cc1ccc2nc(C3CCN(CC(=O)N4CCCCCC4)CC3)[nH]c2c1
4. Cc1cc(S(=O)(=O)N(Cc2ccccc2)Cc2ccc(N(C)C)cc2)ccc1-n1cnnn1
5. Cc1cc(C)nc(N2CCC(C(=O)Nc3ccc(Oc4ccccc4)cc3)CC2)n1
6. Cc1ccc(NC(=O)CCC(=O)OCC(F)(F)C(F)F)cc1
7. Cc1ccc(Nc2cc(C)nc3ncnn23)c(Cl)c1

output:
1: 17.2; 2: 99.4; 3: 13.7; 4: 36.4; 5: 11; 6: 35.3; 7: 18.4

# batch: return inhibition for each of the 2 molecules below
1. COC(=O)c1ccccc1NC(=O)CN1CCC(n2nnc3cc(F)ccc32)CC1
2. CC(=O)NC1=NC(=O)/C(=C/N2CCCCC2)S1

output:
25.9
16.4

input: Please report the measured inhibition for NC(=O)C1(N2CCCCC2)CCN(C(=O)Nc2ccccc2C(F)(F)F)CC1
output: 31.2
